Here the recorded Purity (%) is given for each entry.
- Assay name: Stability on exposure to the air at room temperature for 12 months, purity by HPLC
- Assay type: physicochemical
- Condition parameters: after exposure to the air at room temperature for 12 months
Could you give me the number in %? Just the number is fine.

Could you share which Purity (%) value was measured for Nc1ccncc1 [Polymorph IV, 4-aminopyridine] ?
100

Which Purity (%) value is on record for Nc1ccncc1 [Polymorph III, 4-aminopyridine] ?
100

If you can, please state the reported Purity (%) value of Nc1ccncc1 [Polymorph V, 4-aminopyridine] .
100

Looking for the measured Purity (%) of Nc1ccncc1 [Polymorph VII, 4-aminopyridine] , can you help?
100

Request the reported Purity (%) associated with Nc1ccncc1 [Polymorph VI, 4-aminopyridine]
99.98

State the recorded Purity (%) for this entry: Nc1ccncc1 [Polymorph I, 4-aminopyridine]
99.66

Fill blank: measured Purity (%) of the compound Nc1ccncc1 [Polymorph VIII, 4-aminopyridine] is ____.
100

What measured Purity (%) goes with Nc1ccncc1 [Polymorph II, 4-aminopyridine] ?
100

The origin of these recorded values is patent US20130197040A1.
